Experimental target: Aβ 1-42 (Homo sapiens, UniProt P05067)
Construct: The reaction solutions contained Aβ 1-42 at concentrations
Sequence (P05067 672-713 limits assumed): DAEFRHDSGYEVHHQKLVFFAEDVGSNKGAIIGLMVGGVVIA
Experiment summary: Fluorometric H2O2 assay (inhibition of Abeta H2O2 production)
Format: biochemical
Test conditions: concentration required to inhibit 50% of Abeta H2O2 production; read-out: H2O2 IC50
Exercise: state measured IC50 for each of the molecules provided.
One number for each entry, in nM.

Quick batch: IC50 for everything below.
1. CN(c1ccc2cccc(O)c2n1)c1ccc2cccc(O)c2n1 [PB 56]
2. O=C(CNC(=O)c1cc(O)c2cccc(O)c2n1)NCCc1c[nH]cn1 [PB 987]
3. O=c1c2ccc(I)c(O)c2ncn1-c1ccc(F)cc1 [PB 1162]
4. O=C(NCCc1cnc[nH]1)c1ccc2cccc(O)c2n1 [PB 948]

OUTPUT:
1: 250; 2: 1800; 3: 3200; 4: 150

Quick batch: IC50 for everything below.
1. O=C(O)CCCn1cnc2c(O)c(Cl)cc(Cl)c2c1=O [PB 1255]
2. O=C(NCCc1c[nH]cn1)c1ccc2c(Cl)cc(Cl)c(O)c2n1 [PB 1038]

OUTPUT:
[930, 260]

Quick batch: IC50 for everything below.
1. CN1CCCN(C)CCN(C)CCCN(C)CC1 [PB 933]
2. Oc1c(C2CC2)ncc2cccnc12 [PB 1073]
3. O=C1c2ccccc2C(=O)N1CCn1cnc2c(O)c(I)ccc2c1=O [PB 1170]
4. O=C1NC(=O)c2cc(-n3cnc4c(O)c(Cl)cc(Cl)c4c3=O)ccc21 [PB 1247]

OUTPUT:
110
520
720
560

Quick batch: IC50 for everything below.
1. Nc1cc(Cn2cnc3c(O)c(Cl)cc(Cl)c3c2=O)ccn1 [PB 1250]
2. CCOC(=O)c1cnc2c(O)c(CC)ncc2c1 [PB 1116]
3. O=c1c2c(Cl)cc(Cl)c(O)c2ncn1CCNCc1ccncc1 [PB 1264]
4. Br.CN(C)Cc1nc2c(O)c(Cl)cc(Cl)c2c(=O)n1C [PB 1269]

OUTPUT:
1. 480
2. 1630
3. 450
4. 280
